I'd be grateful if you could share measured pIC50 for these entries.
- Tested Target: GABAa receptor
- Method Notes: assay for GABAa receptor activity: inhibition of 3H-RO15-1788 (3H-Flumazenil) binding to rat cortical tissue
- Condition Description: 3H-RO15-1788 0.5 nM, 30 min at 4°
Answers are plain numbers, as −log10 of the molar value.

# per-item lookup of pIC50; items listed below
1. COc1ccc(-c2nc3c[nH]c4c(n-3c2=O)CCCCC4)c(F)c1
2. COc1ccc(-c2nc3c[nH]c4c(n-3c2=O)CCC4)c(F)c1
3. COc1ccc(-c2nc3c[nH]c4c(n-3c2=O)CCCC4)c(F)c1
4. O=c1c(-c2ccccc2F)nc2c[nH]c3c(n1-2)CCCC3

[7.89, 7.82, 8.27, 7.96]
